B1: minF1; the commonest letter at each place (parent)
chain: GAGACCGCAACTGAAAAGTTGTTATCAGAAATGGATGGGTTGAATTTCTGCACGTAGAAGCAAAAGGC

# Variants of: B1
# protocol.summary: fraction ligated after 30 min (ligated reads / total reads); higher = more ligase activity
# reported.conditions: with F1*subA RNA substrate (template-directed ligation), 42 °C
Returns condition met if the recorded fraction ligated is greater than or equal to 0.009, and condition not met otherwise.

Does the variant GAGACCGCAACTGAAAAGTTGTTATCAGAATTGGACGGGTTGAATTTCTGCACGTAGAAGCAAAAGGC [A31T T36C] have recorded fraction ligated that is 0.009 or more?
condition met

How about GAGACCGCAACTGAAAAGTTGTTATCAGAAATGGGTTGGTTGAATTTCTGCACGTAGAAGCAAAAGGC [A35G G37T] ?
condition not met

How about GAGACCGCAACTGAAAAGTTGTTAGCAGAAATGGTTGGGTTGAATTTCTGCACGTAGAAGCAAAAGGC [T25G A35T] ?
condition met

How about GAGACCGCAACTGAAAAGTTGTTCTCAGAAATGGTTGGGTTGAATTTCTGCACGTAGAAGCAAAAGGC [A24C A35T] ?
condition not met

How about GAGACCGCAACTGAAAAGTTGTTCTCAGAAATGGAGGGGTTGAATTTCTGCACGTAGAAGCAAAAGGC [A24C T36G] ?
condition met

Let us examine a further case.
Does the variant GAGACCGCAACTGAAAAGTTGTTATCGGAAATGGATCGGTTGAATTTCTGCACGTAGAAGCAAAAGGC [A27G G37C] have recorded fraction ligated that is 0.009 or more?
condition not met
